Biological target: Muscarinic acetylcholine receptor M5 (Homo sapiens)
Assay: human M5 muscarinic receptor antagonists, primary screen, CHO cells, Fluo-8 calcium fluorescence (AID 624040);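 note: 0% = acetylcholine EC80 with DMSO and 100% = DMSO without agonist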
Details: CHO-hM5 cells, ACh EC80, at 3 µM, stronger effect = higher value
The whole screen tested about 360,000 compounds, of which about 2,100 (0.58%) were called active. For the sample, actives were picked, then their nearest neighbours and some compounds at random.
recorded endpoint: inhibition

{"compound": "CN(Cc1cccnc1)C(=O)c1cc(COc2ccc3ncccc3c2)on1", "recorded endpoint": "inhibition", "assay value": "42.6% (active)"}
{"compound": "CCOc1ccc(C(=O)N(Cc2ccc(N(C)C)cc2)C2CCS(=O)(=O)C2)cc1 (stereo unspecified)", "recorded endpoint": "inhibition", "assay value": "-0.33% (inactive)"}
{"compound": "CC(C)OCCCNc1ncnc2c1[nH]c1ccc(F)cc12", "recorded endpoint": "inhibition", "assay value": "36.1% (active)"}
{"compound": "O=C(O)C(c1ccccc1)C1(O)CCCCC1 (stereo unspecified)", "recorded endpoint": "inhibition", "assay value": "-13.2% (inactive)"}
{"compound": "O=C(c1ccc2c(c1)C(=O)N(Cc1ccncc1)C2=O)N1CCN(S(=O)(=O)c2ccc(OC(F)(F)F)cc2)CC1", "recorded endpoint": "inhibition", "assay value": "11.6% (inactive)"}
{"compound": "Cc1ccccc1NC(=O)Cc1nc(COC(=O)C(C)(C)Oc2ccc(Cl)cc2)cs1", "recorded endpoint": "inhibition", "assay value": "0.92% (inactive)"}
{"compound": "CN(CC#CCC(c1ccccc1)c1ccccc1)C(C)(C)C", "recorded endpoint": "inhibition", "assay value": "56.4% (active)"}
{"compound": "CCN(CC(=O)Nc1ccccc1C(=O)NC1CC1)Cc1cccs1", "recorded endpoint": "inhibition", "assay value": "-5.91% (inactive)"}
{"compound": "CC(C)(C)N(CC#CCC(O)(c1ccccc1)C1CCCC1)CCO (stereo unspecified)", "recorded endpoint": "inhibition", "assay value": "8.39% (inactive)"}
{"compound": "O=C(/C=C(O)/C=C/c1ccc(O)cc1)/C=C/c1ccc(O)cc1", "recorded endpoint": "inhibition", "assay value": "54.8% (active)"}
{"compound": "CN(C)CCOC(=O)C(c1ccccc1)C1(O)CCCC1 (stereo unspecified)", "recorded endpoint": "inhibition", "assay value": "98.1% (active)"}
